Assay: Phase-solubility of dexmedetomidine in aqueous 2-HP-β-CD solutions (phosphate buffers, 32 °C)
Format: physicochemical
Settings: phosphate buffer with 2-hp-β-cd, pH 7, pH 7; 2-HP-β-CD 5 % (m/V) (35 mM); 32° C.; read-out: DEX solubility

[
  {
    "Item smiles": "Cc1cccc([C@H](C)c2cnc[nH]2)c1C",
    "Units of measure": "µg/mL",
    "solubility at 240 h": 1600
  }
]

====

Assay: Phase-solubility of dexmedetomidine in aqueous 2-HP-β-CD solutions (phosphate buffers, 32 °C)
Assay type: physicochemical
Settings: phosphate buffer with 2-hp-β-cd, pH 6, pH 6; 2-HP-β-CD 10 % (m/V) (70 mM); 32° C.; read-out: DEX solubility
Measured metric: solubility at 240 h (mg/mL)

[
  {
    "Item smiles": "Cc1cccc([C@H](C)c2cnc[nH]2)c1C",
    "Measured metric": "solubility at 240 h",
    "Units of measure": "mg/mL",
    "Readout value": 10
  }
]

====

Experiment: Phase-solubility of dexmedetomidine in aqueous 2-HP-β-CD solutions (phosphate buffers, 32 °C)
Type: physicochemical
Settings: phosphate buffer with 2-hp-β-cd, pH 8, pH 8; 2-HP-β-CD 5 % (m/V) (35 mM); 32° C.; read-out: DEX solubility
Measured metric: solubility at 240 h (µg/mL)

[
  {
    "Item smiles": "Cc1cccc([C@H](C)c2cnc[nH]2)c1C",
    "Measured metric": "solubility at 240 h",
    "Units of measure": "µg/mL",
    "Readout value": 1230
  }
]

====

Assay: Phase-solubility of dexmedetomidine in aqueous 2-HP-β-CD solutions (phosphate buffers, 32 °C)
Type: physicochemical
Conditions: phosphate buffer with 2-hp-β-cd, pH 8, pH 8; 2-HP-β-CD 10 % (m/V) (70 mM); 32° C.; read-out: DEX solubility

[
  {
    "Item smiles": "Cc1cccc([C@H](C)c2cnc[nH]2)c1C",
    "solubility at 240 h": "2260 µg/mL"
  }
]

====

Assay: Phase-solubility of dexmedetomidine in aqueous 2-HP-β-CD solutions (phosphate buffers, 32 °C)
Assay type: physicochemical
Details: phosphate buffer with 2-hp-β-cd, pH 7, pH 7; 2-HP-β-CD 15 % (m/V) (105 mM); 32° C.; read-out: DEX solubility

[
  {
    "Molecule": "Cc1cccc([C@H](C)c2cnc[nH]2)c1C [DEX, dexmedetomidine]",
    "solubility at 240 h (µg/mL)": 4910
  }
]

====

Experiment: Phase-solubility of dexmedetomidine in aqueous 2-HP-β-CD solutions (phosphate buffers, 32 °C)
Assay type: physicochemical
Details: phosphate buffer with 2-hp-β-cd, pH 7, pH 7; 2-HP-β-CD 30 % (m/V) (209 mM); 32° C.; read-out: DEX solubility

[
  {
    "Molecule": "Cc1cccc([C@H](C)c2cnc[nH]2)c1C [DEX, dexmedetomidine]",
    "Units of measure": "µg/mL",
    "solubility at 240 h": 9330
  }
]

====

Assay: Phase-solubility of dexmedetomidine in aqueous 2-HP-β-CD solutions (phosphate buffers, 32 °C)
Assay type: physicochemical
Settings: phosphate buffer with 2-hp-β-cd, pH 8, pH 8; 2-HP-β-CD 15 % (m/V) (105 mM); 32° C.; read-out: DEX solubility

[
  {
    "Molecule": "Cc1cccc([C@H](C)c2cnc[nH]2)c1C [DEX, dexmedetomidine]",
    "Units of measure": "µg/mL",
    "solubility at 240 h": 3770
  }
]

// data source = patent US5817332A
